RUN DESCRIPTION: soluble on expression in E. coli; label from the status in PepcDB or PDB records
VALUE TYPE: soluble on expression in E. coli

The cases that follow already have their soluble on expression in E. coli on record.
>>> result("MGSDKIHHHHHHMIDFSLCEVNKFRAYGGANGNKINILYEGNSYMLKFSPVPSRNKAMSYTNGCISEYLACHIFASLGFKTQETLLGTYTDPRGKEKVVVACGDFTEGGKRLIEFAHLKNTCISSEQNGYGKELSSIMQAIDEQMLLPPDQLRDFFWDMFIADALLGNFDRHNGNWGILVDEQSKTAEIAPVYDCGSCLYPQLAAKDMGDVLNSEDEIDRRVYVFPTSSIEEDGKKISYFEFISSLRNPDCTAALKRVSARIDMEKIRMLIDKTPTLLPVQKEFYTVIISERKAKIIDYSMEKLMKLKGQDLERDEQQNGGLQFTM")
"not soluble"
>>> result("MSTTRKLILANIHGVDKPGVTAELTAILAKHNAFILDIGQADIHNNLSLGILFQTDESHSGSILKDLLFKSYELDVTVRFEPITEEAYSEWVGMQGRNRYIITVVARKITAEMIAGIARSSAEQGLNIDDIKRLTGRIPLNETDRSPKASVEFSMRGTPTDIEKLQRNFMEMASQLNMDISFQRESMFR")
"not soluble"
>>> result("MGSDKIHHHHHHMIHTREEQMEAFGRFLDILDELRVKCPWDRKQTNESLRPNTIEETYELCDALMRDDKKDICKELGDVLLHVAFYAKIGSETGDFDIKDVCDKLCDKLIFRHPHVFGEVKAETAGQVSENWEQLKLKEKDGNKSVLSGVPSALPSLIKAYRIQDKARNVGFDWEEREQVWDKVKEEIREFQVEVANMDKEKAEAEFGDVMFSLINAARLYKINPDNALELTNQKFIRRFNYLEEHTIKEGKNLKDMSLEEMDAIWNEAKRKGL")
"not soluble"
>>> result("MGSDKIHHHHHHMKISCKNVGVILPIFNSSHRSFKKTFLQAASGGRIGSSNTGIIEVEALKKIDFTLTEGNRLALIGHNGSGKTTLLRVLAGAYKPTSGKYECIGRVTSLIDPMMGMDGELTGLENIKLRGLFLGLSKNEIKNITEDVIEFSELGDFIKIPVRTYSSGMVLRLGFSISTAINPEILLMDEWMSVGDSDFKRKAEMRLNSFISKAGIMVMATHDDELAKSVCNKFIRLEHGEIVSKGGF")
"not soluble"

Here is the next item to consider.
Request: Give the measured soluble on expression in E. coli for `MLSFINKPRMESKMTIPELRELYQTQQLVEAIIEPSFQEGEWIVEFRHQMGGFVLLTDENGEECRYIDLDSASQSAMAVGFRQVRIENQ`
Result: not soluble

* * *

RUN DESCRIPTION: soluble on expression in E. coli; label from the status in PepcDB or PDB records
VALUE TYPE: soluble on expression in E. coli

>>> result("EGLNICKKIMVISDKNDAISEFIIKELERGCTIIDGKGGYTGKDTYILYTVLNRKEFIRLRIFIKETDPNAFITISDAKEVLGEGFKEI")
"not soluble"
>>> result("VDKIYVIEENDPFIEEQIKAYGIDCIGKDVIPPYGEMTPDVLRKAIFGKTNDTIEYKSELVTPRPPSFCAGCPHRGFFYELGKRKNLIVGGDIGCYTLGFAPPYNGIDYVVCMGSAFGTAHGAQKVLNMKDDNEKRLVGVLGDSTFFHTGINGLLDVVYNRGNSISVILDNRITGMTGHQENPGSGYTLQGAKTKEVDIEGLVKACGIEHVRVINPNNLKEVNEALDWALAIEDEPSVIIT")
"not soluble"
>>> result("MGSDKIHHHHHHMSVNPLFKVILHPFIKESIASLKAMTNLTGVAGDPFMDKVEDFRFKGYAVCSDVTGSLDGVIMMHHYPETAIAIGNSVCQNMFNETYAFDAINDDLRNALAEWGNTIVGRSTDLHSRHKLEYGFSSPYFVEDLTEMDKYLVGVKQVITVPIMVEGIGRYYFNLLIRDVVEQVANVDIDAQSIDVENTHTTPLPLTSTVLVVDDSAMIRKAISRFLNNLGYHNVIEADDGIGAIEAVKAGKVDFIFMDVVMTRLNGDAALAELRNMGSQVPVVMLSSVTDNILVKQCQKHGISGFIFKPINANNGAETIAKYLKIAAAVAI")
"not soluble"
